These measurements were taken from PubChem BioAssay.

Experiment: inhibitors of E-selectin induction by TNFa, primary screen, imaging, HUVEC, immunofluorescence, MLSMR starter and 10KST1 sets (AID 487);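 note: signal is fraction of cell area covered by stained E-selectin grains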
Conditions: HUVEC TNFalpha-induced E-selectin immunofluorescence imaging, at 2 µM; active compounds read high
Active and inactive are the calls of the source.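 Rule for the calls: active = visually confirmed hit in the image check and inhibition above 20%; inconclusive = visually confirmed hit but inhibition not above 20%; inactive = no visual hit in the image check.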
# inhibition annotations
PROPERTY: inhibition

compound=C=C(Br)Cn1c(CCCC)nc2ccccc21 assay_result="-117% (inactive)"
compound=CCCCNC(=O)N1CCOCCOCCN(C(=O)NCCCC)CCOCC1 assay_result="-164% (inactive)"
compound="O=C(CNC1C(=O)Nc2ccccc21)Sc1ccccc1 (stereo unspecified)" assay_result="-63.1% (inactive)"
compound=CCO/C([O-])=N/c1c[n+](N2CCOCC2)no1 assay_result="-28.6% (inactive)"
compound="CCN=C1SC(C(=O)Nc2ccc(Cl)c(Cl)c2)CC(=O)N1CC (stereo unspecified)" assay_result="-56.6% (inactive)"
compound=CC(=O)Nc1ccc(Oc2ccc3nc(C)[nH]c3c2)cc1 assay_result="-129% (inactive)"
